All figures here come from PubChem BioAssay AID1159580.

Here the recorded normalized growth is given for each entry.
test: chemical genetic growth profiling, strain panel (AID 1159580);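 also: tested at 20 µM; growth read once vehicle control cultures reached saturation at 30 °C; 1 = growth at the plate median or of vehicle wells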; settings: S. cerevisiae deletion strains, growth OD, locus YLR357W, strain rsc2, stronger effect = lower value
Out of some 5,500 compounds screened, about 2,000 (36%) were called active. Roughly 18% stayed inconclusive and do not appear here. The list shows a part of the results.
Lab note: record just the number, no unit beside it.

[[record]]
compound = "C#CCN(C)Cc1ccccc1"
experimental_endpoint = "normalized growth"
endpoint_result = 1.05

[[record]]
compound = "NCCc1cnc[nH]1"
experimental_endpoint = "normalized growth"
endpoint_result = 1

[[record]]
compound = "COC(=O)C1=COC(OC2OC(CO)C(O)C(O)C2O)C2C(C)CC(=O)C12 (stereo unspecified)"
experimental_endpoint = "normalized growth"
endpoint_result = 1.05

[[record]]
compound = "O=S(=O)(O)CCS"
experimental_endpoint = "normalized growth"
endpoint_result = 0.912

[[record]]
compound = "CO/N=C1/CN(c2nc3c(cc2F)c(=O)c(C(=O)O)cn3C2CC2)CC1CN (stereo unspecified)"
experimental_endpoint = "normalized growth"
endpoint_result = 0.981

[[record]]
compound = "CC(C)NCC(O)COc1cccc2[nH]ccc12 (stereo unspecified)"
experimental_endpoint = "normalized growth"
endpoint_result = 0.952

[[record]]
compound = "CNC(=O)O/N=C(\\C)SC"
experimental_endpoint = "normalized growth"
endpoint_result = 0.983

[[record]]
compound = "CC[C@@]1(O)C[C@H](O[C@H]2C[C@H](N(C)C)[C@H](O)[C@H](C)O2)c2c(cc3c(c2O)C(=O)c2c(O)cccc2C3=O)[C@H]1C(=O)OC"
experimental_endpoint = "normalized growth"
endpoint_result = 0.939

[[record]]
compound = "COc1ccc2c(c1)OC1(O)COc3cc(OC)c(OC)cc3C1=C2 (stereo unspecified)"
experimental_endpoint = "normalized growth"
endpoint_result = 0.983

[[record]]
compound = "CC[C@@]1(O)C[C@H](O[C@H]2C[C@H](N(C)C)[C@H](O)[C@H](C)O2)c2c(cc3c(c2O)C(=O)c2c(O)ccc(O)c2C3=O)[C@H]1C(=O)OC"
experimental_endpoint = "normalized growth"
endpoint_result = 0.907


Field normalized growth (entry Cn1c(=O)c2c(ncn2CC(O)CO)n(C)c1=O (stereo unspecified) ) reads 0.989

The compound listed as `Nc1nc(=S)c2[nH]cnc2[nH]1` shows normalized growth equal to 0.937

Entry CN1C2CCC1CC(OC(c1ccccc1)c1ccccc1N)C2 (stereo unspecified) — recorded normalized growth = 0.979

---

test: chemical genetic growth profiling, strain panel (AID 1159580);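 also: tested at 20 µM; growth read once vehicle control cultures reached saturation at 30 °C; 1 = growth at the plate median or of vehicle wells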; details: S. cerevisiae deletion strains, growth OD, locus YEL061C, strain CIN8, stronger effect = lower value
Screen size: about 5,500 compounds; about 2,000 (36%) were called active. Roughly 18% stayed inconclusive and do not appear here. This is one part of the list.
experimental.endpoint: normalized growth
Please give the numeric answer without any surrounding text.

[[record]]
compound = "C[C@H]1COc2c(N3CCN(C)CC3)c(F)cc3c(=O)c(C(=O)O)cn1c23"
endpoint_result = 0.993

[[record]]
compound = "C/C(=C\\C(=O)Nc1ccc(F)cc1)Nc1ccc(F)cc1"
endpoint_result = 0.973


GET /value?item= `CCN(CC)Cc1ccc(Nc2ccnc3cc(Cl)ccc23)cc1O` &field=normalized growth returns 1

normalized growth recorded for this compound, `Clc1ccc(C(c2ccc(Cl)cc2)C(Cl)(Cl)Cl)cc1` , is 1.02

The compound identified as O=C(CC1NCCN(Cc2ccccc2)C1=O)Nc1ccc(Cl)cc1 (stereo not drawn) registered its normalized growth at 1.01

---

experiment: chemical genetic growth profiling, strain panel (AID 1159580);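 also: tested at 20 µM; growth read once vehicle control cultures reached saturation at 30 °C; 1 = growth at the plate median or of vehicle wells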; conditions: S. cerevisiae deletion strains, growth OD, locus YOR061W, strain CKA2, stronger effect = lower value
Screen size: about 5,500 compounds; about 2,000 (36%) were called active. About 18% were inconclusive and are not listed. This is one part of the list.
experimental.endpoint: normalized growth
Returns: the value as a bare number; no unit string appended.

Solved cases (8 shown):
[[record]]
compound = "COc1ccc2c(c1)OC/C(=C/c1ccc(OC)c(OC)c1)C2=O"
endpoint_result = 0.979

[[record]]
compound = "O=C(NCc1ccc(Cl)c(Cl)c1)c1cccnc1OCC(F)(F)F"
endpoint_result = 0.945

[[record]]
compound = "O=S(=O)(O)CCS"
endpoint_result = 1.02

[[record]]
compound = "CC[C@@]1(O)C[C@H](O[C@H]2C[C@H](N(C)C)[C@H](O)[C@H](C)O2)c2c(cc3c(c2O)C(=O)c2c(O)cccc2C3=O)[C@H]1C(=O)OC"
endpoint_result = 0.89

[[record]]
compound = "CCC1(O)CC(OC2CC(N(C)C)C(OC3CC(O)C(OC4CCC(=O)C(C)O4)C(C)O3)C(C)O2)c2c(cc3c(c2O)C(=O)c2c(O)cccc2C3=O)C1C(=O)OC (stereo not given)"
endpoint_result = 1

[[record]]
compound = "O=c1c(-c2ccc(O)cc2)coc2cc(O)ccc12"
endpoint_result = 1.02

[[record]]
compound = "CNCCC(Oc1ccc(C(F)(F)F)cc1)c1ccccc1 (stereo not given)"
endpoint_result = 1.01

[[record]]
compound = "COC(=O)C[C@H]1C2(C)CC34OC5(C)O[C@@]6([C@H](OC(C)=O)C(OC(C)=O)[C@]7(C)C(/C(=C(/O)C(C)C)C(=O)O[C@H]7c7ccoc7)[C@@]6(O5)[C@H](OC(C)=O)[C@@]3(O)C2OC(=O)C(C)C)[C@]14C (stereo not given in full)"
endpoint_result = 0.962


Entry under test: `O=C(/C=C/c1ccc2c(c1)OCO2)Nc1ccc(Br)cc1` . Its normalized growth was 0.973

The compound `CC(=O)Oc1cc(OC(C)=O)c2c(c1)O[C@H](c1ccc(OC(C)=O)c(OC(C)=O)c1)[C@@H](OC(C)=O)C2` showed normalized growth equal to 0.977

compound `COc1ccc(C(=O)O)cc1OC` , normalized growth observed: 1.01

Item: `CCCCCCCCCCC[C@@H](C[C@H]1OC(=O)[C@H]1CCCCCC)OC(=O)[C@@H](CC(C)C)NC=O` | normalized growth: 1.03

// normalized growth value for `CN(C)CCN(Cc1ccccc1)c1ccccn1` : 0.996

According to the records, this compound CCCCCCC(C)OC(=O)COc1cc(Cl)c(Cl)cc1Cl (stereo not given) displays normalized growth of 1

compound CCC(C)C(=O)O[C@@H]1C[C@@]2(C)[C@H](c3ccoc3)OC(=O)CC23OC2(C)OC34[C@H](OC(=O)C(C)C)[C@@]3(O)[C@@H](OC(=O)C5(C)OC5C)[C@@]5(C)C[C@]3(O)[C@@](C)([C@H]5CC(=O)OC)C14O2 (stereo not given in full) , normalized growth observed: 0.987

---

test: chemical genetic growth profiling, strain panel (AID 1159580);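 also: tested at 20 µM; growth read once vehicle control cultures reached saturation at 30 °C; 1 = growth at the plate median or of vehicle wells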; conditions: S. cerevisiae deletion strains, growth OD, locus YOR231W, strain MKK1, stronger effect = lower value
The whole screen tested about 5,500 compounds, of which about 2,000 (36%) were called active. Another 18% or so got no clear call; they are omitted. The list shows a part of the results.
Entries whose normalized growth is below 0.9 take 1.0; entries at or above 0.9 take 0.0.

[[record]]
molecule = "CCC(C)C(=O)O[C@@H]1C[C@@]2(C)[C@H](c3ccoc3)OC(=O)CC23OC2(C)OC34[C@H](OC(=O)C(C)C)[C@@]3(O)[C@@H](OC(=O)C5(C)OC5C)[C@@]5(C)C[C@]3(O)[C@@](C)([C@H]5CC(=O)OC)C14O2 (some centres undefined)"
qualitative_label = 0.0

[[record]]
molecule = "N#C/C(=N/Nc1ccc(F)cc1)S(=O)(=O)c1ccc(Cl)cc1"
qualitative_label = 0.0

[[record]]
molecule = "O=C(O)CCCc1ccccc1"
qualitative_label = 1.0

[[record]]
molecule = "C[n+]1c2cc(N)ccc2cc2ccc(N)cc21"
qualitative_label = 1.0

[[record]]
molecule = "O=C(/C=C/c1ccc(O)c(O)c1)OCCc1ccccc1"
qualitative_label = 1.0


Given the entry C=CC[C@]1(O)CCC2C3CCC4=CC(=O)CCC4=C3C=C[C@@]21C (some centres undefined) , would its reported normalized growth be below 0.9?
0.0

Decide: normalized growth of COC(=O)C[C@H]1C2(C)CC34OC5(C)O[C@@]6([C@H](OC)C(OC(=O)C(C)C)[C@]7(C)C(/C(=C(/OC)C(C)C)C(=O)O[C@H]7c7ccoc7)[C@@]6(O5)[C@H](OC)[C@@]3(OC)C2OC(C)=O)[C@]14C (some centres undefined) strictly below 0.9?
0.0

# TODO verify normalized growth < 0.9 strictly for this molecule: `COc1cccc(C2CCN(C(=O)c3cccc4ccccc34)CC2)c1`
0.0

Hello, is normalized growth of the following molecule strictly smaller than 0.9? `COc1ccc(-c2coc3cc(OC)ccc3c2=O)cc1`
0.0

Would you kindly verify if normalized growth of `CCOC(=O)c1ccc2nc(N=CNO)sc2c1` is strictly less than 0.9?
0.0
